- assayed system: UniProt P62508
- Sequence (P62508 whole entry): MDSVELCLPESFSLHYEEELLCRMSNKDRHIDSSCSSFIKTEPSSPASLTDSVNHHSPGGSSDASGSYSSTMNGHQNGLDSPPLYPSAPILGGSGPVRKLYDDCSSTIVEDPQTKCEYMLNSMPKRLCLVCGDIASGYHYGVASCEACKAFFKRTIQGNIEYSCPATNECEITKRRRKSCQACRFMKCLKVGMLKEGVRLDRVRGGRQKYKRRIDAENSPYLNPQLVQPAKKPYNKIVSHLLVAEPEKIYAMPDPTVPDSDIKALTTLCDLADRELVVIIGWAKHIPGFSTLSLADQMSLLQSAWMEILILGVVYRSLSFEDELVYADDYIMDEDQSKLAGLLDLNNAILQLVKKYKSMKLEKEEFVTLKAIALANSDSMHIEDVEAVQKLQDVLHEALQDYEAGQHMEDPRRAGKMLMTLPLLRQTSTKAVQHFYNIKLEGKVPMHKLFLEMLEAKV
assay endpoint: IC50

[[record]]
compound = "CN1CCCC1CCOc1ccc(/C(=C(/CCCO)c2ccccc2)c2ccc(O)cc2)cc1.Cl (stereo not given)"
test_result = "20 nM"

[[record]]
compound = "CN1C[C@@H]1CCCOc1ccc(/C(=C(/CCCO)c2ccccc2)c2ccc(Br)cc2)cc1 (stereo not given in full)"
test_result = "1660 nM"

[[record]]
compound = "OCCC/C(=C(\\c1ccc(O)cc1)c1ccc(N2CCOCC2)cc1)c1ccccc1"
test_result = "2230 nM"

[[record]]
compound = "CN(C)CCn1cc(-c2ccc(/C(=C(/CCCO)c3ccccc3)c3ccc(O)cc3)cc2)nn1"
test_result = "6300 nM"

[[record]]
compound = "OCCC/C(=C(\\c1ccc(O)cc1)c1ccc(OCCN2CC2)cc1)c1ccccc1"
test_result = "70 nM"

